molecular target: Anti-CD28 Fab (SEQ ID NOs: 202, 203); assay: phage binding ELISA on captured Fab, competitor CD28 antigen;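 note: clonal phage supernatant binding in wells preincubated with CD28 antigen in blocking buffer, detected by HRP-conjugated anti-M13 antibody ELISA, compared with blocking buffer alone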
Sequence (VH, as listed by the source, chain 1 of 2): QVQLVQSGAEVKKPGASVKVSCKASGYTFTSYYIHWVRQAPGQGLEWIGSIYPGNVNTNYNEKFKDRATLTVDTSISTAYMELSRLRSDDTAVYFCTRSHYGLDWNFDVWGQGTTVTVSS
Sequence (VL, as listed by the source, chain 2 of 2): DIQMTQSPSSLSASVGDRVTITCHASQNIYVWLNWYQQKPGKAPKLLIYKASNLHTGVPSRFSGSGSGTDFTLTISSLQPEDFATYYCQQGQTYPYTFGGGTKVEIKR
result type: Anti-CD28 Fab signal in the presence of CD28
One number for each entry.

Use the examples below as a reference point.
| binder | result number |
| --- | --- |
| YCAGHLEMYMSKCL [Phage-798] | 0.07 |
| YCDGHTGMYISKCL [Phage-774] | 0.06 |
| YCEGHAPVYMQKCL [Phage-878] | 0.08 |

Each of the following entries comes with a recorded value; kindly state Anti-CD28 Fab signal in the presence of CD28 for each.
1. YCEGHSAIYIAKCM [Phage-772]
2. YCDGHLETYMQKCL [Phage-865]
3. YCDGHSMTYMAKCI [Phage-815]

Key:
1: 0.11; 2: 0.08; 3: 0.06

Each of the following entries comes with a recorded value; kindly state Anti-CD28 Fab signal in the presence of CD28 for each.
1. YCQGHAPWYMVKCL [Phage-840]
2. YCEGHSSAYMRKCL [Phage-758]

Key:
[0.08, 0.06]

Where do these numbers come from? They come from patent US20260274955A1.
